- Tested on: E. faecalis ATCC 29212
- assay.method.text: Checkerboard microdilution MIC with PFOB, Table 2
- Assay type: cell-based
- setup.conditions: E. faecalis ATCC 29212; PFOB 1 mg/L
reported.endpoint: MIC of partner antibiotic in the presence of PFOB at 1 mg/L

Summary: O=C(O)[C@H]1/C(=C/CO)O[C@@H]2CC(=O)N21 , E. faecalis ATCC 29212, MIC of partner antibiotic in the presence of PFOB at 1 mg/L = >64 µg/mL

Summary: CO/N=C(\C(=O)N[C@@H]1C(=O)N2C(C(=O)O)=C(COC(N)=O)CS[C@H]12)c1ccco1 , E. faecalis ATCC 29212, MIC of partner antibiotic in the presence of PFOB at 1 mg/L = >64 µg/mL

Summary: CC(C)(O/N=C(\C(=O)N[C@@H]1C(=O)N2C(C(=O)[O-])=C(C[n+]3ccccc3)CS[C@H]12)c1csc(N)n1)C(=O)O , E. faecalis ATCC 29212, MIC of partner antibiotic in the presence of PFOB at 1 mg/L = >64 µg/mL

The values you see were collected from patent US20040176349A1.
